EXPERIMENTAL_CONTEXT: in acetone, 288.15 K
MEASUREMENT_NAME: solubility (mole fraction)
Answer with the value's number alone.

# compound O=C(c1ccccc1)c1ccc(Cl)cc1 ; its solubility (mole fraction) = 0.116

---

EXPERIMENTAL_CONTEXT: in isopropanol, 278.15 K
MEASUREMENT_NAME: solubility (mole fraction)
# print the numeric value only

Notebook: O=C(c1ccccc1)c1ccc(Cl)cc1 , solubility (mole fraction) read as 0.00704

---

EXPERIMENTAL_CONTEXT: in ethyl acetate, 323.15 K
MEASUREMENT_NAME: solubility (mole fraction)
Keep it simple and answer with nothing but the number.

# solubility (mole fraction) (molecule: O=C(c1ccccc1)c1ccc(Cl)cc1 ) is 0.534

---

EXPERIMENTAL_CONTEXT: in ethyl acetate, 288.15 K
MEASUREMENT_NAME: solubility (mole fraction)
Just the number, please, no unit attached.

// sample O=C(c1ccccc1)c1ccc(Cl)cc1 , its solubility (mole fraction) was 0.138

---

EXPERIMENTAL_CONTEXT: in ethanol, 323.15 K
MEASUREMENT_NAME: solubility (mole fraction)
# answer = number (no unit)

get_value(item= O=C(c1ccccc1)c1ccc(Cl)cc1 , readout=solubility (mole fraction)) returns 0.0856

---

EXPERIMENTAL_CONTEXT: in ethyl acetate, 278.15 K
MEASUREMENT_NAME: solubility (mole fraction)
Lab note: write the figure by itself, no unit.

Form: compound = O=C(c1ccccc1)c1ccc(Cl)cc1 ; solubility (mole fraction) = 0.114

---

EXPERIMENTAL_CONTEXT: in isobutanol, 313.15 K
MEASUREMENT_NAME: solubility (mole fraction)
Quick one: just the number, no unit, thanks!

O=C(c1ccccc1)c1ccc(Cl)cc1 yielded solubility (mole fraction) of 0.0549

---

EXPERIMENTAL_CONTEXT: in methyl acetate, 318.15 K
MEASUREMENT_NAME: solubility (mole fraction)

In plain terms, O=C(c1ccccc1)c1ccc(Cl)cc1 has a documented solubility (mole fraction) of 0.417

---

EXPERIMENTAL_CONTEXT: in n-butanol, 313.15 K
MEASUREMENT_NAME: solubility (mole fraction)
Please give only the number in your answer, with no unit.

// recorded solubility (mole fraction) for O=C(c1ccccc1)c1ccc(Cl)cc1 : 0.0677

---

EXPERIMENTAL_CONTEXT: in acetonitrile, 323.15 K
MEASUREMENT_NAME: solubility (mole fraction)
// no unit, no text: just the number

Record summary for O=C(c1ccccc1)c1ccc(Cl)cc1 : reported solubility (mole fraction) = 0.616

---

EXPERIMENTAL_CONTEXT: in n-butyl acetate, 293.15 K
MEASUREMENT_NAME: solubility (mole fraction)
// response body must contain only the number

# compound O=C(c1ccccc1)c1ccc(Cl)cc1 ; its solubility (mole fraction) = 0.182

---

EXPERIMENTAL_CONTEXT: in methyl acetate, 298.15 K
MEASUREMENT_NAME: solubility (mole fraction)
Answer field: number only, no words.

Summary for this compound, O=C(c1ccccc1)c1ccc(Cl)cc1 : solubility (mole fraction) is 0.196

---

EXPERIMENTAL_CONTEXT: in n-butanol, 293.15 K
MEASUREMENT_NAME: solubility (mole fraction)
Number only, please.

Form field solubility (mole fraction), entry O=C(c1ccccc1)c1ccc(Cl)cc1 : 0.0394

---

EXPERIMENTAL_CONTEXT: in n-propanol, 313.15 K
MEASUREMENT_NAME: solubility (mole fraction)

Field solubility (mole fraction) (entry O=C(c1ccccc1)c1ccc(Cl)cc1 ) reads 0.0571

---

EXPERIMENTAL_CONTEXT: in ethanol, 313.15 K
MEASUREMENT_NAME: solubility (mole fraction)

The compound O=C(c1ccccc1)c1ccc(Cl)cc1 showed solubility (mole fraction) equal to 0.043

---

EXPERIMENTAL_CONTEXT: in ethyl acetate, 298.15 K
MEASUREMENT_NAME: solubility (mole fraction)

The molecule O=C(c1ccccc1)c1ccc(Cl)cc1 showed solubility (mole fraction) equal to 0.203

---

EXPERIMENTAL_CONTEXT: in isobutanol, 283.15 K
MEASUREMENT_NAME: solubility (mole fraction)

Kindly note the recorded solubility (mole fraction) for O=C(c1ccccc1)c1ccc(Cl)cc1 , which is 0.0113

---

EXPERIMENTAL_CONTEXT: in n-propanol, 278.15 K
MEASUREMENT_NAME: solubility (mole fraction)

compound O=C(c1ccccc1)c1ccc(Cl)cc1 , solubility (mole fraction) observed: 0.0111

---

EXPERIMENTAL_CONTEXT: in acetone, 308.15 K
MEASUREMENT_NAME: solubility (mole fraction)
Please state the value as a number alone, without comment.

Entry O=C(c1ccccc1)c1ccc(Cl)cc1 , solubility (mole fraction) reported as 0.277

---

EXPERIMENTAL_CONTEXT: in n-butyl acetate, 283.15 K
MEASUREMENT_NAME: solubility (mole fraction)
Respond numerically, and do not add a unit to the figure.

For reference, reported solubility (mole fraction) for O=C(c1ccccc1)c1ccc(Cl)cc1 stands at 0.142

---

EXPERIMENTAL_CONTEXT: in n-propanol, 293.15 K
MEASUREMENT_NAME: solubility (mole fraction)
Reply: number alone, nothing else.

Note to self: solubility (mole fraction) recorded for O=C(c1ccccc1)c1ccc(Cl)cc1 was 0.0205

---

EXPERIMENTAL_CONTEXT: in methyl acetate, 323.15 K
MEASUREMENT_NAME: solubility (mole fraction)
The response must contain the number and no unit.

Recorded solubility (mole fraction) (compound O=C(c1ccccc1)c1ccc(Cl)cc1 ): 0.494

---

EXPERIMENTAL_CONTEXT: in acetonitrile, 308.15 K
MEASUREMENT_NAME: solubility (mole fraction)
Respond using a number only.

Given item O=C(c1ccccc1)c1ccc(Cl)cc1 , the value recorded as its solubility (mole fraction) is 0.131

---

EXPERIMENTAL_CONTEXT: in isopropanol, 288.15 K
MEASUREMENT_NAME: solubility (mole fraction)
The response must contain the number and no unit.

Looking up O=C(c1ccccc1)c1ccc(Cl)cc1 , I see its solubility (mole fraction) listed as 0.0118

---

EXPERIMENTAL_CONTEXT: in isobutanol, 288.15 K
MEASUREMENT_NAME: solubility (mole fraction)

Just so you know, measured solubility (mole fraction) for O=C(c1ccccc1)c1ccc(Cl)cc1 came out at 0.0138

---

EXPERIMENTAL_CONTEXT: in isopropanol, 313.15 K
MEASUREMENT_NAME: solubility (mole fraction)

O=C(c1ccccc1)c1ccc(Cl)cc1 yielded solubility (mole fraction) of 0.0398

---

EXPERIMENTAL_CONTEXT: in methyl acetate, 303.15 K
MEASUREMENT_NAME: solubility (mole fraction)
Write the number on its own, no unit after it.

// solubility (mole fraction) value for O=C(c1ccccc1)c1ccc(Cl)cc1 : 0.239

---

EXPERIMENTAL_CONTEXT: in acetone, 278.15 K
MEASUREMENT_NAME: solubility (mole fraction)
# respond with the number and nothing more

Just so you know, measured solubility (mole fraction) for O=C(c1ccccc1)c1ccc(Cl)cc1 came out at 0.0863

---

EXPERIMENTAL_CONTEXT: in methanol, 283.15 K
MEASUREMENT_NAME: solubility (mole fraction)
Write the number on its own, no unit after it.

Entry O=C(c1ccccc1)c1ccc(Cl)cc1 — recorded solubility (mole fraction) = 0.00622

---

EXPERIMENTAL_CONTEXT: in acetone, 293.15 K
MEASUREMENT_NAME: solubility (mole fraction)
Respond with the number and no other words.

The recorded solubility (mole fraction) for O=C(c1ccccc1)c1ccc(Cl)cc1 is 0.146

---

EXPERIMENTAL_CONTEXT: in ethanol, 288.15 K
MEASUREMENT_NAME: solubility (mole fraction)

Summary for this molecule, O=C(c1ccccc1)c1ccc(Cl)cc1 : solubility (mole fraction) is 0.0124

---

EXPERIMENTAL_CONTEXT: in acetone, 283.15 K
MEASUREMENT_NAME: solubility (mole fraction)
Number only, please.

// recorded solubility (mole fraction) for O=C(c1ccccc1)c1ccc(Cl)cc1 : 0.0934

---

EXPERIMENTAL_CONTEXT: in methyl acetate, 308.15 K
MEASUREMENT_NAME: solubility (mole fraction)
Write the value as a bare number.

Value of solubility (mole fraction) reported for the molecule O=C(c1ccccc1)c1ccc(Cl)cc1 is 0.289

---

EXPERIMENTAL_CONTEXT: in ethanol, 303.15 K
MEASUREMENT_NAME: solubility (mole fraction)
Write the value as a bare number.

Entry O=C(c1ccccc1)c1ccc(Cl)cc1 , solubility (mole fraction) reported as 0.0239

---

EXPERIMENTAL_CONTEXT: in isobutanol, 308.15 K
MEASUREMENT_NAME: solubility (mole fraction)
# print the numeric value only

Entry O=C(c1ccccc1)c1ccc(Cl)cc1 — recorded solubility (mole fraction) = 0.0408
